Data origin: patent US10287255B2

Target: human recombinant HDAC6 (Homo sapiens, UniProt Q9UBN7)
Sequence (Q9UBN7 1-1215): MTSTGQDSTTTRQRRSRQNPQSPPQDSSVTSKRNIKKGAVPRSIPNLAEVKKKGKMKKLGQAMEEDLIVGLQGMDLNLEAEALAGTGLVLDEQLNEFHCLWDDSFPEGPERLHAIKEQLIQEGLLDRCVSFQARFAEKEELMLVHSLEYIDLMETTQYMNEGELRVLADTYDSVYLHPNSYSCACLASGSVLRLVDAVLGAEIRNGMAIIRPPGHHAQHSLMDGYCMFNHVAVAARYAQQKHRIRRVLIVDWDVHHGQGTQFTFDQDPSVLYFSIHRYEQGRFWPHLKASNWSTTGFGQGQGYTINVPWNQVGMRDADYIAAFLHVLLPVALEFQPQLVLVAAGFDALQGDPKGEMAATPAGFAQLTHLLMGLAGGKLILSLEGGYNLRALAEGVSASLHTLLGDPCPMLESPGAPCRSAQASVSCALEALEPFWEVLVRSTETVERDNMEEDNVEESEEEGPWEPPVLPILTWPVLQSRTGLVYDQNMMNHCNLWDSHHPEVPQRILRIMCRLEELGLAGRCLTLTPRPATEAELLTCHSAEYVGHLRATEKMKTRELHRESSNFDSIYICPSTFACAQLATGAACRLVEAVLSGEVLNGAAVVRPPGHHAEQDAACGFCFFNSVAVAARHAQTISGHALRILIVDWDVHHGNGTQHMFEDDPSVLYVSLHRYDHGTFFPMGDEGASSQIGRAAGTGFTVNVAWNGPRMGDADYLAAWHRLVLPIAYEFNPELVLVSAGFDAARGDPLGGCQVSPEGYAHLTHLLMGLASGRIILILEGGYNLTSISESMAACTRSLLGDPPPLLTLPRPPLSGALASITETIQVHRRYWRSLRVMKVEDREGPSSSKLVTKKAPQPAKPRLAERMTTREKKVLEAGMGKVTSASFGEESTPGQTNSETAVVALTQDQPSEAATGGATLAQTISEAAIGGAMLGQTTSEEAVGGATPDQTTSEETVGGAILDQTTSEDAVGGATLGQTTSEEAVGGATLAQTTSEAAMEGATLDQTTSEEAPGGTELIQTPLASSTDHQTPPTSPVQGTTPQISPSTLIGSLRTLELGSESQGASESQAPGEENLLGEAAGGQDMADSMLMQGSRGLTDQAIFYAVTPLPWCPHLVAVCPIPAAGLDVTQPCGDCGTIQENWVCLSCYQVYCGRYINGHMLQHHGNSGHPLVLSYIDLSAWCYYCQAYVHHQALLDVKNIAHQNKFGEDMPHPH
Test: HDAC6 enzyme activity inhibition assay (in vitro, fluorimetric)
Details: human recombinant HDAC6, fluorimetric kit, same protocol as HDAC1
Value type: IC50 (nM)

Use the examples below as a reference point.
• C[C@@H]1CN(Cc2ccccc2C2=CCC(C)(C)CC2)C[C@H](C)N1Cc1ccc(C(=O)NO)cc1 = 1060
• C[C@@H]1CN(Cc2ccc(/C=C/C(=O)NO)cc2)C[C@H](C)N1Cc1cccc(CN2CCOCC2)c1 = 55

[P] CCN(CC)CC(C)NCc1cccc(C(=O)N2[C@H](C)CN(Cc3ccc(C(=O)NO)cc3)C[C@@H]2C)c1 (stereo partly shown)
[Q] C[C@@H]1CN(Cc2ccc(-c3cccs3)cc2)C[C@H](C)N1Cc1ccc(C(=O)NO)cc1
Query block: Which shows the larger IC50 value: P or Q ? Return value: the label identifying the chosen record.
Result block: Q
